Test system: PC-3 prostate
Assay: NCI tumour cell line growth inhibition, 48 h; in the data active = GI50 below about 0.43 µM; inactive = the rest
Choose one outcome from this list and give only that: y = active, n = inactive

Give the logged outcome of this assay for the following compound: COc1ccc(C#CC2=C(c3cc(OC)c(OC)c(OC)c3)C(=O)OC2)cc1
n

Same thing, different compound: O=C(c1ccccc1)c1nn(-c2ccccc2)c2nc3nc(-c4ccccc4)cc(=O)n3nc12
n

Same thing, different compound: CCN(CC)CCCNc1[nH]ncc2c(C)c3nc4ccccc4c3cc12
n

Further cases:
Give the logged outcome of this assay for the following compound: CNCCCn1c2c(c3ccc(F)cc3c1=O)C(=O)c1cc(OC)cnc1-2
y

Same thing, different compound: Cc1ccc(C(=O)N=Nc2c(O)[nH]c3ccc(Cl)cc23)cc1
n

Same thing, different compound: COc1ccc2[nH]c(O)c(/C=c3/ccc4c(c3)N=C(c3ccc(F)cc3)N=4)c2c1
n

Same thing, different compound: CCOC(=O)c1nc2cc(C(F)(F)F)ccc2[n+]([O-])c1C
n

Same thing, different compound: CC/C=C\C[C@H](O)C/C=C1/C(=O)C=C[C@@H]1C/C=C\CCCC(=O)NC
n

---

Tested on: HCT-15 colon
Test: NCI tumour cell line growth inhibition, 48 h
assayMetric: TGI

Please report the recorded TGI for Cc1ccc(C)c(COCCOCn2c(=O)[nH]c(=O)c3cc(Br)ccc32)c1 .
> 100 µM

Same thing, different compound: O=C1Nc2ccccc2/C1=C\c1c(Cl)nc2n1CCS2
64.5 µM

Further cases:
Please report the recorded TGI for O[C@H]1[C@H](O)[C@@H](Cn2nnc(-c3ccccc3)c2-c2ccccc2)OCO[C@@H]1Cn1nnc(-c2ccccc2)c1-c1ccccc1 .
11.8 µM

Same thing, different compound: CSc1ccc2c(cc1=O)[C@@H](NC(=O)c1ccc([N+](=O)[O-])cc1)CCc1cc(O)c(O)c(O)c1-2
85.1 µM

---

Below is a list of entries, each paired with its recorded TGI value.
System: NCI-H460 lung
Test: NCI tumour cell line growth inhibition, 48 h

Please report the recorded TGI for CC(=O)N(C(C)=O)n1nc2c(n1)C(=O)c1ccccc1C2=O .
> 100 µM

Same thing, different compound: CC(C)(SCc1ccccc1)C(N)C(=O)O (centres undefined)
> 100 µM

Further cases:
Please report the recorded TGI for C[n+]1c(/C=C/c2ccc(/C=N/NC(=O)c3ccc(C(=O)N/N=C/c4ccc(/C=C/c5cn6ccccc6[n+]5C)cc4)cc3)cc2)cn2ccccc21 .
> 100 µM

Same thing, different compound: COc1ccc(C#CC2=C(c3cc(OC)c(OC)c(OC)c3)C(=O)OC2)cc1
> 50 µM

Same thing, different compound: COc1ccc(-c2nnc(Nc3nc(O)c(C4=c5cc(F)ccc5=NC4=O)s3)o2)cc1
> 100 µM

---

Test system: CAKI-1 renal
Assay: NCI tumour cell line growth inhibition, 48 h
assayMetric: TGI

Please report the recorded TGI for Cc1cc(NS(=O)(=O)c2ccc(NC(=O)COC(=O)c3cccc4c(=O)c5ccccc5[nH]c34)cc2)no1 .
> 100 µM

Same thing, different compound: C/C=C1\CCC2c3[nH]c4ccccc4c3CCN2C1 (stereo not given)
> 100 µM

Same thing, different compound: COc1cc2cc3c4c(cc(OC)c(OC)c4c2cc1OC)CCN3C(=O)CCC(=O)O
> 100 µM

Same thing, different compound: Cc1[nH]c(=O)nc(N(CCO)/N=C/c2ccc(Cl)cc2)c1C(=O)Nc1ccc(Cl)cc1
> 100 µM

Same thing, different compound: Cc1cnc(SCCN2CCN(C)CC2)nc1-c1cc2ccccc2s1
16.4 µM

Same thing, different compound: Nc1cc2nc3ccccc3oc-2cc1=O
> 53.7 µM

Same thing, different compound: CC(=O)OC1[C@H](n2ccnc2)C[C@H]2[C@@H]3CC=C4CC(N5CCCC5)CC[C@]4(C)[C@H]3CC[C@]12C (stereo not given in full)
> 100 µM

Same thing, different compound: C[C@@](O)(/C=C/[C@H]1CC=CC(=O)O1)[C@@H](C[C@@H](O)\C=C/C=C\C=C\CO)OP(=O)(O)O
4.66 µM

Same thing, different compound: O=C(CCc1ccc(O)cc1)NCCCNC(=O)CCc1ccc(O)cc1
> 100 µM

Same thing, different compound: O=c1c2c3c(sc2nc2n1N=C(c1ccc([N+](=O)[O-])cc1)CS2)CCCC3
> 100 µM

Further cases:
Please report the recorded TGI for CC(C)(O)CCc1ccc(O)c2c(=O)c3c(O)c4c(cc3oc12)O[C@H]1OC=C[C@@]41O .
< 0.0318 µM

Same thing, different compound: N=C(N)SCc1ccc(N=C=S)cc1
25.4 µM

Same thing, different compound: CCN(Cc1cccc(F)c1F)c1ccc(CO)c(Cl)c1
5.59 µM

Same thing, different compound: S=C(c1c[nH]c2ccccc12)N1CCCCC1
> 100 µM

Same thing, different compound: CCOP(=O)(CC(=O)C1=C(O)C(CCCCNC(=O)OC(C)(C)C)N(Cc2ccccc2)C1=O)OCC (stereo not given)
> 100 µM

Same thing, different compound: COc1ccc(-c2cc(-c3ccccc3)nc3c2CC(=O)Nc2ccccc2-3)cc1OC
> 100 µM

Same thing, different compound: CCOC(=O)c1cn2c(ccc3sc4ccccc4c(=O)c32)n1
> 100 µM

---

Test system: HL-60(TB) leukemia
Assay: NCI tumour cell line growth inhibition, 48 h
Threshold check on TGI: at or above 20 µM gives Y, strictly below gives N.

Consider the following illustrative entries.
Would you say Cc1cc(NS(=O)(=O)c2ccc(NC(=O)COC(=O)c3cccc4c(=O)c5ccccc5[nH]c34)cc2)no1 shows TGI at minimum 20 µM?
Y

Same thing, different compound: COc1ccc(-c2nc3c(nc2-c2ccc(OC)cc2)N(C)S(=O)(=O)N=C3N)cc1
Y

Same thing, different compound: COc1cc2cc3c4c(cc(OC)c(OC)c4c2cc1OC)CCN3C(=O)CCC(=O)O
Y

Further cases:
Would you say CCN(CC)CC(=O)Nc1ccc2c(c1)C(=O)c1ccc(NC(=O)CN(CC)CC)cc1C2=O shows TGI at minimum 20 µM?
Y

Same thing, different compound: CCCCCCCCCCCCCCNCC(OCC)OCC
N

Same thing, different compound: Cc1ncc(-c2ccnc(Nc3ccc(S(C)(=O)=O)cc3)n2)n1C(C)C
N

Same thing, different compound: Cc1cc(C)c2c(=O)cc(-c3ccc4ccccc4c3)[nH]c2n1
N

Same thing, different compound: C=CCn1c(-c2ccc(Cl)cc2Cl)csc1=Nc1c(C)n(C)n(-c2ccccc2)c1=O
Y

Same thing, different compound: COc1ccc(Oc2cc(NCCC(F)(F)F)c3ncc(-c4ccc(C(=O)NC5CC5)c(C)c4)n3n2)c(F)c1F
Y

---

Test system: HL-60(TB) leukemia
Test: NCI tumour cell line growth inhibition, 48 h
assayMetric: GI50

Previously resolved entries follow.
Please report the recorded GI50 for N=C(N)SCc1ccc([N+](=O)[O-])cc1[N+](=O)[O-] .
3380 nM

Same thing, different compound: CCCCN1CCN(c2ccc3nc(-c4ccc5nc(-c6ccc(OCC)c(OCC)c6)[nH]c5c4)[nH]c3c2)CC1
704 nM

Further cases:
Please report the recorded GI50 for C[C@]12CCc3sc(-c4cccc(F)c4)nc3C1=CC[C@@H]1[C@@H]2CC[C@]2(C)C(=O)CC[C@@H]12 .
2000 nM

---

Test system: U251 CNS
Choose one outcome from this list and give only that: T for active, F for inactive

Consider the following illustrative entries.
Give the logged outcome of this assay for the following compound: Cc1cn2c(/C=N/N=C(N)N)c(-c3ccsc3)nc2s1
F

Same thing, different compound: CC(=O)c1ccc2c(c1)N(CCCN(C)C)c1ccccc1S2
F

Same thing, different compound: Cc1ncc(-c2ccnc(Nc3ccc(S(C)(=O)=O)cc3)n2)n1C(C)C
F

Same thing, different compound: C[C@@](O)(/C=C/[C@H]1CC=CC(=O)O1)[C@@H](C[C@@H](O)\C=C/C=C\C=C\CO)OP(=O)(O)O
F

Further cases:
Give the logged outcome of this assay for the following compound: Oc1ccccc1C=Nc1ccccc1N=Cc1ccccc1O.[Cu+2]
F

Same thing, different compound: Cc1cc(O)cc(C)c1/C=C/c1cncc(C(=O)OC(C)(C)C)c1
F

Same thing, different compound: O=C(c1ccccc1)c1nn(-c2ccccc2)c2nc3nc(-c4ccccc4)cc(=O)n3nc12
F

Same thing, different compound: CC(C)(C)OC(=O)NCCCCCCCCCCn1c2c(c3ccccc3c1=O)C(=O)c1ccccc1-2
F

Same thing, different compound: CCN(Cc1cccc(F)c1F)c1ccc(CO)c(Cl)c1
F

---

Tested on: HCT-15 colon
Assay: NCI tumour cell line growth inhibition, 48 h
assayMetric: TGI

Previously resolved entries follow.
Please report the recorded TGI for Cc1ncc(-c2ccnc(Nc3ccc(S(C)(=O)=O)cc3)n2)n1C(C)C .
> 8.6 µM

Same thing, different compound: O=C1CCCC2=C1CC1=C(CCCC1=O)N2c1cccc([N+](=O)[O-])c1
> 100 µM

Same thing, different compound: CCN(Cc1cccc(F)c1F)c1ccc(CO)c(Cl)c1
36.2 µM

Same thing, different compound: CNC(=O)c1cc2c(Oc3ccc(NC(=S)NC(=O)Cc4ccccc4)cc3F)ccnc2cc1OC
> 100 µM

Same thing, different compound: CCn1c(=O)c2c3cc(OC(C)=O)ccc3oc2c2ccc(OC(C)=O)cc21
> 100 µM

Further cases:
Please report the recorded TGI for COc1ccc(Oc2cc(NCCC(F)(F)F)c3ncc(-c4ccc(C(=O)NC5CC5)c(C)c4)n3n2)c(F)c1F .
> 100 µM

Same thing, different compound: CC(=O)c1ccccc1NS(=O)(=O)c1ccc2nc(C)n(NS(=O)(=O)c3ccccc3C(C)=O)c(=O)c2c1
> 100 µM

Same thing, different compound: CN(C)Cc1cc(C(=O)/C=C/c2ccc(F)cc2)cc(CN(C)C)c1O
30.3 µM

Same thing, different compound: CCN(CC)CC(=O)Nc1ccc2c(c1)C(=O)c1ccc(NC(=O)CN(CC)CC)cc1C2=O
> 100 µM
